system_tested: CYP2D6 (Homo sapiens)
Construct: from tissue; host or cells: pooled human liver microsomes
Sequence (P10635 whole entry): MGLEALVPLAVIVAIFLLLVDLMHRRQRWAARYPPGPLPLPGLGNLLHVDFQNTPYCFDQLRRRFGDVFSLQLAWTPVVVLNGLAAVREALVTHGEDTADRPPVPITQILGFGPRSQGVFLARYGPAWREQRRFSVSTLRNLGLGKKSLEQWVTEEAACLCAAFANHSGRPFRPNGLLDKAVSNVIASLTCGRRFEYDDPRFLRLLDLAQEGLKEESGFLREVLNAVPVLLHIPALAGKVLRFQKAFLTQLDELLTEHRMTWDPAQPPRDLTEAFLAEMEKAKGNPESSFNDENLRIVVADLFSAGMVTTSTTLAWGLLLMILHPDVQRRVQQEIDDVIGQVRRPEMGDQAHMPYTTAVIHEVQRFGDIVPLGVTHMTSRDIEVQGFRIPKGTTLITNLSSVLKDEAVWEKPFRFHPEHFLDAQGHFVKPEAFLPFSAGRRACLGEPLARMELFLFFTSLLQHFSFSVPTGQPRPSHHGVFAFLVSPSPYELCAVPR
test_summary: CYP-direct inhibition, CYP2D6
Format: in vitro ADME
experimental_conditions: human liver microsome; substrate dextromethorphan; read-out: IC50 CYP-2D6
property_name: IC50 (µM)
Field: numeric (µM). Do not append units.

INPUT: Quick check: IC50 on CYP2D6 (Homo sapiens), item COc1cc2c(NC3CCS(=O)(=O)CC3)nc(N3CCC(F)(F)CC3)nc2cc1OCCCN1CCCC1 [Compound 1] ?
OUTPUT: 21.9

INPUT: Note, next up: COc1cc2c(Nc3ccncc3)nc(N3CCC(F)(F)CC3)nc2cc1OCCCN1CCCC1 [Compound 7]
OUTPUT: 12

INPUT: Note, next up: COc1cc2c(N[C@@H]3CCCNC3)nc(N3CCCC3)nc2cc1OCCCN1CCCC1 [Compound 159]
OUTPUT: 50.9

INPUT: Note, next up: COc1cc2c(NC3CCOCC3)nc(N3CCC(F)(F)CC3)nc2cc1OCCCN1CCCC1 [Compound 2]
OUTPUT: 17.6

INPUT: Note, next up: COc1cc2c(Nc3ccncc3)nc(-n3ccnc3)nc2cc1OCCCN1CCCC1 [Compound 130]
OUTPUT: 4.88

###

test_summary: PAMPA permeability
experimental_conditions: PAMPA, Permeability, Pe, 20 μM donor in PBS/MeOH 90:10; 5 hours at RT
For each entry below, report its Papp at 5 h, 20 μM value.
Field: numeric (×10⁻⁶ cm/s). Do not append units.

INPUT: Which value of Papp at 5 h, 20 μM has been reported for COc1cc2c(NC3CCOCC3)nc(N3CCC3)nc2cc1OCCCN1CCCC1 in the records?
OUTPUT: 0.0754

INPUT: Note, next up: COc1cc2c(NC3CCN(C(C)C)CC3)nc(-n3cccn3)nc2cc1OCCCN1CCCC1
OUTPUT: 0.000555

INPUT: Note, next up: COc1cc2c(NC3CCN(C(C)C)CC3)nc(C#N)nc2cc1OCCCN1CCCC1
OUTPUT: 0.0046

INPUT: Note, next up: COc1cc2c(NCC(N)=O)nc(N3CCC(F)(F)CC3)nc2cc1OCCCN1CCCC1
OUTPUT: 0.00981

###

test_summary: Formulation visual stability (DMA/PG/PEG 300/water)
Type: physicochemical
experimental_conditions: 25° C.; 10-11 mg/mL in DMA/PG/PEG 300/Water; 1 h
property_name: Appearance

molecule	readout_value
COc1cc2c(NC3CCN(C4CCCCC4)CC3)nc(N3CCCN(C(C)C)CC3)nc2cc1OCCCN1CCCCC1 [Compound 402, reference compound]	clear
COc1cc2c(NC3CCOCC3)nc(N3CCC(F)(F)CC3)nc2cc1OCCCN1CCCC1 [Compound 2]	clear
COc1cc2c(NC3CCN(C(C)C)CC3)nc(N3CCC(F)(F)CC3)nc2cc1OCCCN1CCCC1 [Compound 400, reference compound]	clear
COc1cc2c(NC3CCS(=O)(=O)CC3)nc(N3CCC(F)(F)CC3)nc2cc1OCCCN1CCCC1 [Compound 1]	clear

###

test_summary: In-vitro half-life in rat liver microsomes
Assay type: in vitro ADME
experimental_conditions: Rat liver microsomes 0.5 mg/mL; 1 μg/mL drug; NRS; read-out: Metabolic Half-life
For each entry below, report its half-life at 1 μg/mL value.

INPUT: Which value of half-life at 1 μg/mL has been reported for COc1cc2c(NC3CCS(=O)(=O)CC3)nc(N3CCC(F)(F)CC3)nc2cc1C#CCN1CCCC1 [Compound 248] in the records?
OUTPUT: 0.282 h

INPUT: Note, next up: COCCN1CCC(Nc2nc(N3CCC(F)(F)CC3)nc3cc(OCCCN4CCCC4)c(OC)cc23)CC1 [Compound 3]
OUTPUT: > 1 h

INPUT: Note, next up: COc1cc2c(NC3CCN(C4CCCCC4)CC3)nc(N3CCCN(C(C)C)CC3)nc2cc1OCCCN1CCCCC1 [Compound 402, reference compound]
OUTPUT: > 1 h

INPUT: Note, next up: COc1cc2c(NC3CCNCC3)nc(N3CCC(F)(F)CC3)nc2cc1OCCCN1CCCC1 [Compound 8]
OUTPUT: > 1 h

INPUT: Note, next up: COc1cc2c(NC3CCS(=O)(=O)CC3)nc(N3CCCN(C)CC3)nc2cc1OCCCN1CCCC1 [Compound 110]
OUTPUT: > 1 h

INPUT: Note, next up: COc1cc2c(NC3CCOCC3)nc(N3CCCC3)nc2cc1OCCCN1CCCC1 [Compound 164]
OUTPUT: > 1 h

INPUT: Note, next up: COc1cc2c(NC3CCOCC3)nc(N3CCC(F)(F)CC3)nc2cc1OCCCN1CCCC1 [Compound 2]
OUTPUT: 0.828 h

###

test_summary: Formulation visual stability (DMA/PG/PEG 300/water)
Format: physicochemical
experimental_conditions: 25° C.; 10-11 mg/mL in DMA/PG/PEG 300/Water; 7 d

molecule	Appearance
COc1cc2c(NC3CCOCC3)nc(N3CCC(F)(F)CC3)nc2cc1OCCCN1CCCC1	clear
COc1cc2c(NC3CCS(=O)(=O)CC3)nc(N3CCC(F)(F)CC3)nc2cc1OCCCN1CCCC1	clear
COc1cc2c(NC3CCN(C4CCCCC4)CC3)nc(N3CCCN(C(C)C)CC3)nc2cc1OCCCN1CCCCC1 [Compound 402, reference compound]	clear
COc1cc2c(NC3CCN(C(C)C)CC3)nc(N3CCC(F)(F)CC3)nc2cc1OCCCN1CCCC1 [Compound 400, reference compound]	clear

###

Hi! I'm sharing some IC50 results obtained with CYP3A4 (Homo sapiens, UniProt P08684).
Sequence (P08684 whole entry): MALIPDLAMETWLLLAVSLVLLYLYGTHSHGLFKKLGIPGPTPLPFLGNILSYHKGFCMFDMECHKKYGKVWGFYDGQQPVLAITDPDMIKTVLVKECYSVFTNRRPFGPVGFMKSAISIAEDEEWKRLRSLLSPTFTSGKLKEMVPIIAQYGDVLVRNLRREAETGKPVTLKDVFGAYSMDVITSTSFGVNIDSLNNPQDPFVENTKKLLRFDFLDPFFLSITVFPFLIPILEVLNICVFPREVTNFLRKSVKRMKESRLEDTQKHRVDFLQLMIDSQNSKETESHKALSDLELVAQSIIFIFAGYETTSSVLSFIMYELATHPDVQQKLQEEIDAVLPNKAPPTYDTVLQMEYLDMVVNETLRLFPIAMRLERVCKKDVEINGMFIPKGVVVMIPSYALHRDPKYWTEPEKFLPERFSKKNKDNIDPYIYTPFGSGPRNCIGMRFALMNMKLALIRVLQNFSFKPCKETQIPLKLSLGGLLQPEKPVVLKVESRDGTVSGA

INPUT: Which value of IC50 has been reported for COc1cc2c(NC3CCS(=O)(=O)CC3)nc(N3CCCN(C)CC3)nc2cc1OCCCN1CCCC1 [Compound 110] in the records?
OUTPUT: > 100 µM

INPUT: Note, next up: COc1cc2c(NC3CCS(=O)(=O)CC3)nc(N3CCN(C)CC3)nc2cc1OCCCN1CCCC1 [Compound 109]
OUTPUT: > 100 µM

INPUT: Note, next up: COc1cc2c(NC3COC3)nc(N3CCC(F)(F)CC3)nc2cc1OCCCN1CCCC1 [Compound 11]
OUTPUT: > 100 µM

INPUT: Note, next up: COc1cc2c(NC3CCS(=O)(=O)CC3)nc(N3CCOCC3)nc2cc1OCCCN1CCCC1 [Compound 102]
OUTPUT: > 100 µM

INPUT: Note, next up: COc1cc2c(Nc3ccncc3)nc(-n3ccnc3)nc2cc1OCCCN1CCCC1 [Compound 130]
OUTPUT: 3.85 µM

###

system_tested: UniProt:P10632
Sequence (P10632 1-490): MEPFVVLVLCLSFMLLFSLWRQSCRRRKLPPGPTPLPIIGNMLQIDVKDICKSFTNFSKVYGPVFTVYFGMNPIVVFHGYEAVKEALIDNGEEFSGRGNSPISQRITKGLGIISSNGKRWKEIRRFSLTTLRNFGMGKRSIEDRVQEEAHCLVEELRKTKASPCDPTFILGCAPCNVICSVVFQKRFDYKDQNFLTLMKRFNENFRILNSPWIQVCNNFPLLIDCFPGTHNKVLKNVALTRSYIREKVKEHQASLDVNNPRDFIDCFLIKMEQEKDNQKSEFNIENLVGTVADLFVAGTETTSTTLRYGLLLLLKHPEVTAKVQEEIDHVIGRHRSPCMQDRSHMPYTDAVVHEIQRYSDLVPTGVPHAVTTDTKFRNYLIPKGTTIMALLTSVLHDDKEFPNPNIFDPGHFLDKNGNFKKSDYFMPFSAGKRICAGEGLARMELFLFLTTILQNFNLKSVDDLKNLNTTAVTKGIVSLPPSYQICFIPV
pIC50: −log10 of the molar value.
For each entry below, report its pIC50 value.

INPUT: Which value of pIC50 has been reported for COc1cc2c(Nc3ccncc3)nc(-n3ccnc3)nc2cc1OCCCN1CCCC1 [Compound 130] in the records?
OUTPUT: 5.33

INPUT: Note, next up: COc1cc2c(NC3CCS(=O)(=O)CC3)nc(N3CCN(C)CC3)nc2cc1OCCCN1CCCC1 [Compound 109]
OUTPUT: < 4.00

INPUT: Note, next up: COc1cc2c(NCC(N)=O)nc(N3CCC(F)(F)CC3)nc2cc1OCCCN1CCCC1 [Compound 9]
OUTPUT: < 4.00

INPUT: Note, next up: COc1cc2c(NC3CCN(C(C)C)CC3)nc(-n3cccn3)nc2cc1OCCCN1CCCC1 [Compound 157]
OUTPUT: < 4.00

INPUT: Note, next up: COc1cc2c(NC3CCN(C(C)C)CC3)nc(-n3ccnc3)nc2cc1OCCCN1CCCC1 [Compound 156]
OUTPUT: < 4.00

INPUT: Note, next up: COc1cc2c(NC3CCS(=O)(=O)CC3)nc(N3CCCN(C)CC3)nc2cc1OCCCN1CCCC1 [Compound 110]
OUTPUT: < 4.00

INPUT: Note, next up: COc1cc2c(NC3CCN(C(C)C)CC3)nc(C#N)nc2cc1OCCCN1CCCC1 [Compound 235]
OUTPUT: < 4.00

INPUT: Note, next up: COc1cc2c(NC3CCN(C(C)C)CC3)nc(N3CCC(F)(F)CC3)nc2cc1OCCCN1CCCC1 [Compound 400, reference compound]
OUTPUT: < 4.00

INPUT: Note, next up: COc1cc2c(NCC3CCN(C)CC3)nc(N3CCC(F)(F)CC3)nc2cc1OCCCN1CCCC1 [Compound 5]
OUTPUT: < 4.00

INPUT: Note, next up: COc1cc2c(NC3CCS(=O)(=O)CC3)nc(N3CCOCC3)nc2cc1OCCCN1CCCC1 [Compound 102]
OUTPUT: 4.22

INPUT: Note, next up: COCCNc1nc(N2CCC(F)(F)CC2)nc2cc(OCCCN3CCCC3)c(OC)cc12 [Compound 4]
OUTPUT: 4.56

INPUT: Note, next up: COc1cc2c(N[C@H]3CCCNC3)nc(N3CCCC3)nc2cc1OCCCN1CCCC1 [Compound 158]
OUTPUT: < 4.00

INPUT: Note, next up: COc1cc2c(NC3CCOCC3)nc(N3CCS(=O)(=O)CC3)nc2cc1OCCCN1CCCC1 [Compound 196]
OUTPUT: < 4.00

INPUT: Note, next up: COc1cc2c(NC3CCS(=O)(=O)CC3)nc(N3CCC(F)(F)CC3)nc2cc1OCCCN1CCCC1 [Compound 1]
OUTPUT: 4.05

INPUT: Note, next up: COc1cc2c(NC3CCOCC3)nc(N3CCC3)nc2cc1OCCCN1CCCC1 [Compound 174]
OUTPUT: < 4.00
